Reference for the values: paper PMC2935290

# tested_target: HLA-DPB1*0402 (Homo sapiens, UniProt P04440+P20036, A65V/A84D/A85E/L207M)
# test_method_notes: biochemical
# Format: binding
measurement_kind: pIC50
Please note pIC50 is a logarithmic value: minus log10 of concentration in mol/L. Answer with that number alone.

Give the reported pIC50 for `CC[C@H](C)[C@H](NC(=O)[C@@H](N)Cc1c[nH]c2ccccc12)C(=O)N[C@H](C(=O)N[C@@H](CCC(N)=O)C(=O)N[C@@H](CS)C(=O)N[C@@H](Cc1ccccc1)C(=O)N[C@@H](CC(C)C)C(=O)N1CCC[C@H]1C(=O)N[C@H](C(=O)N[C@@H](Cc1ccccc1)C(=O)N[C@@H](CC(C)C)C(=O)N[C@@H](C)C(=O)N[C@@H](CCC(N)=O)C(=O)N1CCC[C@H]1C(=O)N1CCC[C@H]1C(=O)N[C@@H](CO)C(=O)NCC(=O)N[C@@H](CCC(N)=O)C(=O)N[C@@H](CCCNC(=N)N)C(=O)N[C@@H](CCCNC(=N)N)C(=O)O)C(C)C)[C@@H](C)O` (system: HLA-DPB1*0402 (Homo sapiens, UniProt P04440+P20036, A65V/A84D/A85E/L207M)).
7.60

Here is the next compound: `CSCC[C@H](NC(=O)[C@H](CCCNC(=N)N)NC(=O)[C@H](CCSC)NC(=O)[C@H](CCCCN)NC(=O)[C@H](CO)NC(=O)[C@@H](NC(=O)[C@@H]1CCCN1C(=O)[C@@H](N)CCCCN)C(C)C)C(=O)N[C@@H](C)C(=O)N[C@H](C(=O)N1CCC[C@H]1C(=O)N[C@@H](CC(C)C)C(=O)N[C@@H](CC(C)C)C(=O)N[C@@H](CCSC)C(=O)N[C@@H](CCC(N)=O)C(=O)N[C@@H](C)C(=O)N[C@@H](CC(C)C)C(=O)N1CCC[C@H]1C(=O)O)[C@@H](C)O`
6.86

Then what about the compound `CC[C@H](C)[C@H](NC(=O)[C@H](Cc1c[nH]c2ccccc12)NC(=O)[C@H](CCSC)NC(=O)[C@H](CC(C)C)NC(=O)[C@H](CC(C)C)NC(=O)[C@@H](N)CO)C(=O)N[C@H](C(=O)N[C@@H](CCC(N)=O)C(=O)N[C@@H](CS)C(=O)N[C@@H](Cc1ccccc1)C(=O)N[C@@H](CC(C)C)C(=O)N1CCC[C@H]1C(=O)N[C@H](C(=O)O)C(C)C)[C@@H](C)O` ?
8.21

###

# tested_target: HLA-DPB1*0402 (Homo sapiens, UniProt P04440+P20036, A65V/A84D/A85E/L207M)
# test_method_notes: biochemical
Listed below: IC50 values for each entry.
Output spec: scalar in nM, unitless text.

| smiles_repr | tested_target | unit_label | IC50 |
| --- | --- | --- | --- |
| CC[C@H](C)[C@H](NC(=O)[C@H](CS)NC(=O)[C@@H]1CCCN1C(=O)[C@H](CCC(=O)O)NC(=O)[C@H](CO)NC(=O)CNC(=O)[C@@H](N)Cc1c[nH]cn1)C(=O)N[C@H](C(=O)N[C@@H](Cc1c[nH]cn1)C(=O)N[C@@H](CCCNC(=N)N)C(=O)NCC(=O)N[C@@H](CCCCN)C(=O)N1CCC[C@H]1C(=O)N[C@@H](Cc1ccccc1)C(=O)N[C@@H](CCC(N)=O)C(=O)N[C@@H](CC(C)C)C(=O)N[C@@H](CCC(=O)O)C(=O)N[C@@H](C)C(=O)N[C@H](C(=O)O)C(C)C)[C@@H](C)CC | HLA-DPB1*0402 (Homo sapiens, UniProt P04440+P20036, A65V/A84D/A85E/L207M) | nM | 1410 |

Using the record for `CC[C@H](C)[C@H](NC(=O)[C@H](CC(=O)O)NC(=O)[C@@H](N)CCCCN)C(=O)N[C@@H](CC(C)C)C(=O)N[C@@H](CCC(=O)O)C(=O)N[C@@H](CC(=O)O)C(=O)N[C@@H](CCC(=O)O)C(=O)N[C@@H](CCCNC(=N)N)C(=O)N[C@@H](C)C(=O)N[C@@H](C)C(=O)N[C@H](C(=O)N[C@@H](CC(=O)O)C(=O)N[C@H](C(=O)N[C@@H](Cc1ccc(O)cc1)C(=O)N[C@@H](CS)C(=O)O)[C@@H](C)O)C(C)C` , report its IC50.
4200

###

# tested_target: HLA-DPB1*0201 (Homo sapiens, UniProt P04440+P20036, A65V/A84D/A85E/K98E)
# test_method_notes: biochemical
measurement_kind: pIC50
A value of pIC50 is the negative decimal logarithm of a concentration given in moles per litre.

Known results for compounds:
| smiles_repr | result_value |
| --- | --- |
| CC[C@H](C)[C@H](NC(=O)[C@H](Cc1ccc(O)cc1)NC(=O)[C@H](CCC(=O)O)NC(=O)[C@H](Cc1ccccc1)NC(=O)[C@H](C)NC(=O)[C@H](CCC(N)=O)NC(=O)[C@H](CO)NC(=O)[C@@H]1CCCN1C(=O)[C@@H](N)CC(C)C)C(=O)N[C@@H](CC(C)C)C(=O)N[C@@H](Cc1ccc(O)cc1)C(=O)N[C@@H](CC(N)=O)C(=O)N[C@@H](CCCCN)C(=O)NCC(=O)O | 9.00 |
| CC(C)C[C@H](NC(=O)[C@@H](NC(=O)[C@H](Cc1c[nH]cn1)NC(=O)[C@H](CO)NC(=O)[C@H](Cc1ccccc1)NC(=O)[C@H](CO)NC(=O)CNC(=O)CNC(=O)[C@H](CC(C)C)NC(=O)[C@H](Cc1ccc(O)cc1)NC(=O)[C@H](CCCNC(=N)N)NC(=O)[C@H](Cc1ccc(O)cc1)NC(=O)[C@H](CC(C)C)NC(=O)[C@@H]1CCCN1)C(C)C)C(=O)O | 7.89 |
| CC(C)C[C@H](NC(=O)[C@H](CO)NC(=O)[C@H](CCC(N)=O)NC(=O)[C@@H](N)CC(C)C)C(=O)N[C@H](C(=O)N[C@@H](CO)C(=O)N[C@@H](CCC(N)=O)C(=O)N[C@@H](Cc1ccc(O)cc1)C(=O)N[C@@H](Cc1ccccc1)C(=O)N[C@@H](CCC(N)=O)C(=O)N[C@H](C(=O)N[C@H](C(=O)N[C@@H](C)C(=O)N[C@@H](CC(=O)O)C(=O)N[C@@H](Cc1ccc(O)cc1)C(=O)O)C(C)C)[C@@H](C)O)C(C)C | 8.57 |
| CSCC[C@H](NC(=O)[C@H](CCCNC(=N)N)NC(=O)[C@H](CCSC)NC(=O)[C@H](CCCCN)NC(=O)[C@H](CO)NC(=O)[C@@H](NC(=O)[C@@H]1CCCN1C(=O)[C@@H](N)CCCCN)C(C)C)C(=O)N[C@@H](C)C(=O)N[C@H](C(=O)N1CCC[C@H]1C(=O)N[C@@H](CC(C)C)C(=O)N[C@@H](CC(C)C)C(=O)N[C@@H](CCSC)C(=O)N[C@@H](CCC(N)=O)C(=O)N[C@@H](C)C(=O)N[C@@H](CC(C)C)C(=O)N1CCC[C@H]1C(=O)O)[C@@H](C)O | 6.79 |

Moving on to the next compound.
Give its pIC50 value. Item: `CC[C@H](C)[C@H](NC(=O)[C@H](CCC(N)=O)NC(=O)[C@H](CS)NC(=O)[C@H](Cc1ccc(O)cc1)NC(=O)[C@H](CC(N)=O)NC(=O)[C@H](CO)NC(=O)[C@@H](NC(=O)CNC(=O)[C@H](Cc1ccccc1)NC(=O)[C@H](CCCNC(=N)N)NC(=O)[C@H](CCC(N)=O)NC(=O)[C@H](C)NC(=O)[C@@H](N)CC(N)=O)[C@@H](C)CC)C(=O)O`
8.11

###

# tested_target: HLA-DPB1*0201 (Homo sapiens, UniProt P04440+P20036, A65V/A84D/A85E/K98E)
# Sequence (P04440 30-258 A65V/A84D/A85E/K98E): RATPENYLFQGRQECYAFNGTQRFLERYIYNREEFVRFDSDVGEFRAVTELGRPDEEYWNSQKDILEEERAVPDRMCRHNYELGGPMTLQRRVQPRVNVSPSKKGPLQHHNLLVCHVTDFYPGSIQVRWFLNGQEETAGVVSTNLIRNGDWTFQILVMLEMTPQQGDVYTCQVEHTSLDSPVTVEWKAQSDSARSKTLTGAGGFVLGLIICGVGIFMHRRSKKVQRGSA
# Sequence (P20036 29-260): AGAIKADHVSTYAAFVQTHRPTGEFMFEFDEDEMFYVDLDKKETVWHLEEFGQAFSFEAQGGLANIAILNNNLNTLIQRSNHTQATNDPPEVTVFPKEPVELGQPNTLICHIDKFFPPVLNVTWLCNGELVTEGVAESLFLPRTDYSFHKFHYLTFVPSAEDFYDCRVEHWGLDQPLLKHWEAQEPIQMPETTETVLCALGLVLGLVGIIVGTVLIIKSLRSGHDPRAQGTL
# test_method_notes: biochemical
measurement_kind: pIC50
// scale note: pIC50 = -log10(conc_M); give the bare number

Here are 4 compounds together with their reported answers.
| smiles_repr | tested_target | measurement_kind | result_value |
| --- | --- | --- | --- |
| CC[C@H](C)[C@H](NC(=O)[C@@H](N)CCCCN)C(=O)N[C@@H](Cc1ccccc1)C(=O)NCC(=O)N[C@@H](CO)C(=O)N[C@@H](CC(C)C)C(=O)N[C@@H](C)C(=O)N[C@@H](Cc1ccccc1)C(=O)N[C@@H](CC(C)C)C(=O)N1CCC[C@H]1C(=O)N[C@@H](CCC(=O)O)C(=O)N[C@@H](CO)C(=O)N[C@@H](Cc1ccccc1)C(=O)N[C@@H](CC(=O)O)C(=O)NCC(=O)N[C@@H](CC(=O)O)C(=O)N1CCC[C@H]1C(=O)N[C@@H](C)C(=O)O | HLA-DPB1*0201 (Homo sapiens, UniProt P04440+P20036, A65V/A84D/A85E/K98E) | pIC50 | 8.05 |
| CSCC[C@H](NC(=O)[C@H](CCSC)NC(=O)[C@@H](N)CCCNC(=N)N)C(=O)N[C@@H](CCC(=O)O)C(=O)N[C@@H](Cc1ccc(O)cc1)C(=O)NCC(=O)N[C@H](C(=O)N[C@H](C(=O)N[C@@H](CCSC)C(=O)N[C@H](C(=O)N[C@@H](CO)C(=O)N[C@@H](Cc1ccc(O)cc1)C(=O)N[C@@H](CCC(N)=O)C(=O)N1CCC[C@H]1C(=O)N[C@@H](CC(C)C)C(=O)O)C(C)C)[C@@H](C)O)[C@@H](C)O | HLA-DPB1*0201 (Homo sapiens, UniProt P04440+P20036, A65V/A84D/A85E/K98E) | pIC50 | 6.14 |
| CC[C@H](C)[C@H](NC(=O)[C@H](CC(=O)O)NC(=O)[C@H](CC(=O)O)NC(=O)[C@H](Cc1ccccc1)NC(=O)[C@H](C)NC(=O)[C@H](CCCCN)NC(=O)[C@H](CCC(N)=O)NC(=O)[C@@H](NC(=O)[C@H](CCCCN)NC(=O)[C@@H](N)CCC(=O)O)[C@@H](C)CC)C(=O)N[C@@H](C)C(=O)N[C@@H](CCCCN)C(=O)N[C@@H](Cc1ccc(O)cc1)C(=O)N[C@@H](Cc1ccccc1)C(=O)N[C@@H](CO)C(=O)N[C@@H](CCCCN)C(=O)O | HLA-DPB1*0201 (Homo sapiens, UniProt P04440+P20036, A65V/A84D/A85E/K98E) | pIC50 | 7.12 |
| CC(C)C[C@H](NC(=O)[C@@H](NC(=O)[C@H](CC(N)=O)NC(=O)[C@H](Cc1ccccc1)NC(=O)[C@H](CC(C)C)NC(=O)[C@H](CO)NC(=O)[C@H](Cc1c[nH]c2ccccc12)NC(=O)[C@@H](NC(=O)[C@@H](NC(=O)[C@H](Cc1c[nH]cn1)NC(=O)[C@H](CC(=O)O)NC(=O)[C@@H]1CCCN1C(=O)[C@@H](N)C(C)C)C(C)C)C(C)C)[C@@H](C)O)C(=O)O | HLA-DPB1*0201 (Homo sapiens, UniProt P04440+P20036, A65V/A84D/A85E/K98E) | pIC50 | 8.96 |

Now look at this one.
Record lookup: for HLA-DPB1*0201 (Homo sapiens, UniProt P04440+P20036, A65V/A84D/A85E/K98E), what pIC50 belongs to `CC[C@H](C)[C@H](NC(=O)[C@H](Cc1c[nH]c2ccccc12)NC(=O)[C@H](CCSC)NC(=O)[C@H](CC(C)C)NC(=O)[C@H](CC(C)C)NC(=O)[C@@H](N)CO)C(=O)N[C@H](C(=O)N[C@@H](CCC(N)=O)C(=O)N[C@@H](CS)C(=O)N[C@@H](Cc1ccccc1)C(=O)N[C@@H](CC(C)C)C(=O)N1CCC[C@H]1C(=O)N[C@H](C(=O)O)C(C)C)[C@@H](C)O` ?
8.89
